B1: tRNA (parent)
chain: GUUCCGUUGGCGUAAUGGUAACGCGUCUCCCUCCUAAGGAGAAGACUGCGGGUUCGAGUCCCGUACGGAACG

# Variants of: B1
# protocol-notes: yeast fitness relative to wild type (ratio to wild type); higher = fitter; tRNA-Arg(CCU), competitive growth, 37 C, YPD
This sample holds only a part of the variants without activity.
Reported yeast fitness values are given for each entry in this list.

residue-string	yeast fitness
GUUCCGUUGGCGCAAUGGUAACGCGUCUCCCUCCUAAGGAGAAGACUACGGGUUCGAGUCCAGUACGGAACG	0.689
GUUCCGUUGGCGUAAUGGGUACGCGUCUCCCUCCUAAGGAGAAGACUGCGGGUUCGAGUCCCGUACGGAACG	0.955
GUUCCGUUGGCGUAAUGGUAACGCGUCUCCCUUAUAAGGAGAAGACUGCAGGUUCGAGUCCUGUACGGACCG	≤ 0.5
GUUCCGUUGGCGUAAUGGUAAAGCGUCUGCCUCCUAAGGAGAAGACUGCGGGUUCGAAUCCCGUACCGAACG	≤ 0.5
GUUCCGUUGGUGUAAUGGUAACGCGUCUCUCUCCUAAGGAGAAGACUGCGGGUUCGAGUCCCGUAAGGAACG	≤ 0.5
GUUCCGUUGGCGUAAUGGGAAUGCGUCUCCCUCCUAAGGAGAAGACUGCGGAUUCGAGUCCCGUACGGAACG	≤ 0.5
GUUCCGUUGGCGUAAUGGUACCGCGUCUCGCUCCUAAGGAGAAGACUGCGGGUUCGAGUCCCGUGCGGAACG	≤ 0.5
GUUCCGUUGGUGUAAUGGUAACGGGUCUCCCUACUAAGGAGGAGACUGCGGGUUCGAGUCCCGUACGGAACG	≤ 0.5
GUUCCGUUGGCGUAAUAGUAACGCGUCUCCCUCCUAAGGAGAAGACUGCGGGUUCGAGUCCCGUACGGAGCG	0.866
GUUCCGUUGGCGUAAUGGUAACGCGUCGACCUCCUAAGGAGAAGACUGCGGGUUAGAGUCCCGUACGGAACG	≤ 0.5
GUUCGGUUGGCGUAAUGGUACCGCGUCUCCCUCCUAAGGAGAAGGCUGCGGGUUCGGGUCCCGUACGAAACG	≤ 0.5
